B1: library; numbered along this chain (parent)
chain: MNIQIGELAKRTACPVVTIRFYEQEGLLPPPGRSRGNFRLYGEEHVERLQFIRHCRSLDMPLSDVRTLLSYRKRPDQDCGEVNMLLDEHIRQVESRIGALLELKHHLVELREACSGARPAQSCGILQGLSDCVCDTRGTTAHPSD

Variants of: B1
Assay: sfGFP reporter fluorescence (15 h) (µM FITC); higher = higher leak
Settings: library round: Round 0; ligand: none
observable: sfGFP reporter fluorescence

Here is how some variants turned out for sfGFP reporter fluorescence.
**Query** State its sfGFP reporter fluorescence for this variant: MNIQIGELAKRTACPVVTIRFYEQEGLLPPPGRSRGNFRLYGCEHVERLQFIRHCRSLDMPLSDVRTLLSYRKRPDQDCGEVNMLLDEHIRQVESRIGALLELKHHLVELREACSGARPAQSCGILQGLSDCVCDTRGTTAHPSD [E43C]
**Result** 0.0607

**Query** // Input: MNIQIGELAKRTACPVVTIRFYEQEGLLPPPGRSRGNFYLYGEEHVERLQFIRHCRSLDMPLSDVRTLLSYRKRPDQDCGEVNMLLDEHIRQVESRIGALLELKHHLVELREACSGARPAQSCGILQGLSDCVCDTRGTTAHPSD [R39Y] . Output its sfGFP reporter fluorescence only.
**Result** 0.0599

**Query** Please report sfGFP reporter fluorescence for the following variant: MNIQIGELAKRTACPVVTIRFYEQEGLLPPPGRSRGNFRLYGEEHVERLQFIRHCRSLDMPLSDVRTLLSYRKRPDQDDGEVNMLLDEHIRQVESRIGALLELKHHLVELREACSGARPAQSCGILQGLSDCVCDTRGTTAHPSD [C79D]
**Result** 0.0588

**Query** Give the measured sfGFP reporter fluorescence for MNIQIGELAKRTACPVVTIRFYEQEGLLPPPGRSRGNFRLYGEEHVERLQFIRHCRSLDMPLSDVRTLLSYRKRPDQDCGEVNMLLDEHIRQVESRIGALLELKHHLVELREACSGARPAQSCGLLQGLSDCVCDTRGTTAHPSD [I125L]
**Result** 0.055

**Query** Report sfGFP reporter fluorescence for MNIQIGELAKRTACPVVTIRFYEQEGLLPPPGRSRGNFRLYGEEHVERLQFIRHCRSLDMPLSDVRTLLSYRKRPDQDCGEVNMLLDEHIRQVESRIGALLELKHHLVELREACSGARPAQSCGILQYLSDCVCDTRGTTAHPSD [G128Y]
**Result** 0.0755

For each of the items listed, what is its sfGFP reporter fluorescence?
1. MNIQIGELAKRTACPVVTIRFYEQEGLLPPPGRSRGNFRLYGEEHVERLQFIRHCRSLDMPLSDVRTLLSYRKRPDQDCGEWNMLLDEHIRQVESRIGALLELKHHLVELREACSGARPAQSCGILQGLSDCVCDTRGTTAHPSD [V82W]
2. MNIQIGELAKRTACPVVTIRFYEQEGLLPPPGRSRGNFRLYGEEHVERLQFIRHCRSLDMPLSDVRTLLSYRKRPDQDCGEVNMLLDEHIRQVESRIGALLELKHHLVEHREACSGARPAQSCGILQGLSDCVCDTRGTTAHPSD [L110H]
3. MNIQIGELAKRTACPVVTIRFYEQEGLLPPPGRSRGNFRLYGEEHVERLQFIRHCRSLDMPLSDVRTLLSYRKRPDQDCGEVNMLLDEHIRQVESRIGALLELKHHLVELREACSGARPAQSCGILQGLSDCVCDTRGTTAHRSD [P143R]

**Result**
[0.0592, 0.0638, 0.0586]

For each listed entry, give its sfGFP reporter fluorescence.
1. MNIQIGELAKRTACPVVTIRFYEQEGLLPPPGRSRGNFRLYGEEHVERLQFIRHCRSLDMPLSDVRTLLSYRKRPDQDCGEVNMLLDEHIRQVESRIGALLELKHHLVELREACSGARPAQSCGILQGPSDCVCDTRGTTAHPSD [L129P]
2. MNIQIGELAKRTACPVVTIRFYEQEGLLPPPGRSRGNFRLYGEEHVERLQFIRHCRSLDMPLSDVRTLLSYRKRPDQDCGEVNMLLDEHIRQVESRIGALLELKHHLAELREACSGARPAQSCGILQGLSDCVCDTRGTTAHPSD [V108A]
3. MNIQIGELAKRTACPVVTIGFYEQEGLLPPPGRSRGNFRLYGEEHVERLQFIRHCRSLDMPLSDVRTLLSYRKRPDQDCGEVNMLLDEHIRQVESRIGALLELKHHLVELREACSGARPAQSCGILQGLSDCVCDTRGTTAHPSD [R20G]
4. MNIQIGELAKRTACPVVTIRVYEQEGLLPPPGRSRGNFRLYGEEHVERLQFIRHCRSLDMPLSDVRTLLSYRKRPDQDCGEVNMLLDEHIRQVESRIGALLELKHHLVELREACSGARPAQSCGILQGLSDCVCDTRGTTAHPSD [F21V]
5. MNIQIGELAKRTACPVVTIRFYEQEGLLPPPGRSRGNFRLYGEEHVERLQFIRHCRSLDMPLSDVRTLLSYRKRPDQDCGEVNMLLDEHIRQVESRIGALLELKHHLVEIREACSGARPAQSCGILQGLSDCVCDTRGTTAHPSD [L110I]

**Result**
[0.0539, 0.063, 0.0586, 0.0625, 0.0557]

List reported sfGFP reporter fluorescence for each of these variants:
1. MNIQIGELAKRTACPVVTIRFYEQEGLLPPPGRSRGNFRLYGEEHVERLQFIRHCRSLDMPLSDVRTTLSYRKRPDQDCGEVNMLLDEHIRQVESRIGALLELKHHLVELREACSGARPAQSCGILQGLSDCVCDTRGTTAHPSD [L68T]
2. MNIQIGELAKRTACPVVTIRFYEQEGLLPPPGRSRGNFRLWGEEHVERLQFIRHCRSLDMPLSDVRTLLSYRKRPDQDCGEVNMLLDEHIRQVESRIGALLELKHHLVELREACSGARPAQSCGILQGLSDCVCDTRGTTAHPSD [Y41W]
3. MNIQIGELAKRTACPVVTIRFYEQEGLLPPPGRSRGNFRLYGEEHVERLQFIRHCRSLDMPLSDVRTLLSYRKRPDQDCGEVNMLLDEHIRQVESRIGALLELKHHLVELREACSGARPAQSCGILQGLSGCVCDTRGTTAHPSD [D131G]
4. MNIQIGELAKRTACPVVTIRFYEQEGLLPPPGRSRGNFRLYGEEHVERLQFIRHCRSLDMPLSDVRTLLSYRKRPDQDCGEVNMLLDEHIRQVESRIGALLELKHHYVELREACSGARPAQSCGILQGLSDCVCDTRGTTAHPSD [L107Y]

**Result**
1: 0.0612; 2: 0.0586; 3: 0.0566; 4: 0.0603

Count: 5. Required value per item: sfGFP reporter fluorescence.
1. MNIQIGELAKRTACPVVTIRFYEQEGLLPPPGRSRGNFRLYGEEHVERLQFIRHCRSLDMPLSDVRTLLSYRKRPDQDCGEVNMLLDEHIRQVESRVGALLELKHHLVELREACSGARPAQSCGILQGLSDCVCDTRGTTAHPSD [I97V]
2. MNIQIGELAKRTACPVVTIRFYEAEGLLPPPGRSRGNFRLYGEEHVERLQFIRHCRSLDMPLSDVRTLLSYRKRPDQDCGEVNMLLDEHIRQVESRIGALLELKHHLVELREACSGARPAQSCGILQGLSDCVCDTRGTTAHPSD [Q24A]
3. MNIQIGELAKRTACPVVTIRFYEQEGLLPPPGRSRGNFRLYGEEHVERLQFIRHCRSLDMPLSDVRTRLSYRKRPDQDCGEVNMLLDEHIRQVESRIGALLELKHHLVELREACSGARPAQSCGILQGLSDCVCDTRGTTAHPSD [L68R]
4. MNIQIGELAKRTACPVVTIRFYEQEGLLPPPGRSRGNFRLYGEEHVERLQFIRHCRSLDMPLSDVRTLLSYRKRPDQDCGEVNMLLDEHIRQVESRLGALLELKHHLVELREACSGARPAQSCGILQGLSDCVCDTRGTTAHPSD [I97L]
5. MNIQIGELAKRTACPVVTIRFYEQEGLLPPPGRSRGNFRLYGEEHVERLQFIRHCRSLDMPLSDVRTLLSYRKRPDQDCGEVNMLLDEHIRQVESRIGALLELKHHLVELREACSGARPAQSCGILQGLSDCVCSTRGTTAHPSD [D135S]

**Result**
1: 0.0563; 2: 0.0559; 3: 0.0618; 4: 0.0596; 5: 0.0601

All values here come from the supplement of paper PMC12783771.
